Data provenance is patent US20240245691A1.

half-life at 10 μM for assorted compounds
# assay_procedure: Hepatocyte stability assay, human
# Format: in vitro ADME
# applied_conditions: human, hepatocytes, T½, data from repeated experiments
# Method: Defrosted cryo-preserved hepatocytes (viability>70%) were used to determine the metabolic stability of a compound via calculation of intrinsic clearance (CIint; a measure of the removal of a compound from the liver in the absence of blood flow and cell binding). […] The metabolic stability in hepatocytes assay involved a time-dependent reaction using both positive and negative controls. […] 80 μL of clear supernatant was removed and mixed with 80 μL of deionised water before being analysed by LC-MS/MS. […]
Numeric only. Scale: h

These recorded examples may help you get a feel for the data.
[[record]]
structure_smiles = "C=C(CC(=O)NCc1ccc(Cl)cc1)C(=O)OC1CCN(S(C)(=O)=O)CC1"
measurement_kind = "half-life at 10 μM"
unit_info = "h"
measured_result = 0.783

[[record]]
structure_smiles = "C=C(CC(=O)N[C@@H](C)c1ccc(C(F)(F)F)cc1)C(=O)O"
measurement_kind = "half-life at 10 μM"
unit_info = "h"
measured_result = 5.97


Would you kindly look at the next entry?
response.value for `C=C(CC(=O)NC1CCCCCCC1)C(=O)OC1CCN(S(C)(=O)=O)CC1` (field: half-life at 10 μM) = 1.28
